- System: HSL
- experiment.summary: HSL mRNA expression in adipocytes (real-time PCR)
- Assay type: cell-based, human
- study.conditions: Table 17; differentiating adipocytes; control = treatment with ISIS 342673
In the oligonucleotide strings, read from the 5' end, every base follows the letter of its sugar. An asterisk marks phosphorothioate; unmarked linkages are phosphodiester. Other units and linkages are bracketed, terminal groups are in braces. A string of capitals states the bases alone. e = 2'-O-(2-methoxyethyl) (MOE); [5mC] = 5-methylcytosine
The reader will find reported HSL mRNA values listed item by item below.
quantity.measured: HSL mRNA

1. 328119 (antisense eA*eA*eT*eA*eA*e[5mC]*eA*e[5mC]*eA*e[5mC]*eA*eT*e[5mC]*e[5mC]*eA*e[5mC]*eT*eT*eT*eA*eA) [compound 328119]    98.5 percentage of control
2. 328130 (antisense eA*e[5mC]*e[5mC]*eT*e[5mC]*eA*eG*eG*eT*eG*eG*eT*eT*eG*eA*eA*eG*eG*eA*eG*eA) [compound 328130]    76.5 percentage of control
3. 328137 (eG*eT*eA*eA*eG*e[5mC]*eG*e[5mC]*eA*eG*e[5mC]*eT*e[5mC]*e[5mC]*eA*e[5mC]*eA*eG*eG*e[5mC]*eT; anti-miR) [compound 328137]    86.3 percentage of control
4. 328117 (antisense eT*e[5mC]*e[5mC]*eA*e[5mC]*eA*eA*eA*eG*e[5mC]*eT*eG*eA*eA*e[5mC]*eA*eT*eG*eT*e[5mC]*eT) [compound 328117]    61.7 percentage of control
5. 328124 (antisense eA*eG*e[5mC]*eA*eG*eG*eT*eG*eA*eA*eG*eG*e[5mC]*eA*e[5mC]*e[5mC]*eT*eG*eG*e[5mC]*eT) [compound 328124]    103.6 percentage of control
6. 328123 (antisense eT*eT*eA*e[5mC]*eA*eG*eG*eT*eG*e[5mC]*eT*eG*e[5mC]*eA*eA*e[5mC]*eT*eG*eG*eA*eA) [compound 328123]    85.4 percentage of control
7. 328132 (antisense eG*eT*eG*eA*eG*eA*eG*eT*eA*eG*e[5mC]*eA*eT*eG*eT*eT*eT*eG*eT*e[5mC]*eT) [compound 328132]    73.7 percentage of control
8. 328131 (antisense eA*eT*eA*eT*eG*eT*e[5mC]*eA*eT*eA*eT*e[5mC]*eA*eA*eA*e[5mC]*eT*e[5mC]*e[5mC]*eT*eA) [compound 328131]    81.8 percentage of control
9. 328116 (antisense e[5mC]*eA*eA*eA*eA*eT*eT*eG*e[5mC]*eA*eA*eG*e[5mC]*eA*eA*eA*eT*eT*eG*e[5mC]*eA) [compound 328116]    75.8 percentage of control
10. 328122 (antisense e[5mC]*eA*eA*eA*eA*e[5mC]*eA*eT*eA*eA*eA*eA*eA*eT*e[5mC]*e[5mC]*eT*eT*eG*e[5mC]*eA) [compound 328122]    72.7 percentage of control
11. 328133 (eT*eG*eA*eA*eG*eG*eT*eT*e[5mC]*eG*eG*eA*eG*eA*eT*eA*eG*eG*e[5mC]*eT*eA; anti-miR) [compound 328133]    63.0 percentage of control
